assay: In vitro microsomal stability, rat; type: in vitro ADME; conditions: Table 17, 10 min
# % of compound remaining when incubated in rat liver microsomes annotations
Expressed in %, but write only the number.

Incoming: Please report the recorded % of compound remaining when incubated in rat liver microsomes for CN1CCN(CCCNC(=O)[C@@H]2N[C@H](CC(C)(C)C)[C@]3(C(=O)Nc4cc(Cl)ccc43)[C@H]2c2cccc(Cl)c2F)CC1 .
Outgoing: 53.9

---
Incoming: Please report the recorded % of compound remaining when incubated in rat liver microsomes for CC(C)(C)C[C@H]1N[C@@H](C(=O)NCCCN2CCN(C3CC3)CC2)[C@H](c2cccc(Cl)c2F)[C@@]12C(=O)Nc1cc(Cl)ccc12 [MI-519-47] .
Outgoing: 45.3

Incoming: Please report the recorded % of compound remaining when incubated in rat liver microsomes for CN1CCN(CCCNC(=O)[C@@H]2N[C@H](CC(C)(C)C)[C@]3(C(=O)Nc4cc(Cl)c(F)cc43)[C@H]2c2cccc(Cl)c2)CC1 .
Outgoing: 50.1

Incoming: Please report the recorded % of compound remaining when incubated in rat liver microsomes for CC(C)(C)C[C@H]1N[C@@H](C(=O)NCCN2CCCC2)[C@H](c2cccc(Cl)c2F)[C@@]12C(=O)Nc1cc(Cl)c(F)cc12 .
Outgoing: 85.6

Incoming: Please report the recorded % of compound remaining when incubated in rat liver microsomes for CC(C)(C)C[C@H]1N[C@@H](C(=O)NCCCN2CCN(C3CC3)CC2)[C@H](c2cccc(Cl)c2F)[C@@]12C(=O)Nc1cc(Cl)ccc12 [MI-519-48] .
Outgoing: 48.5

Incoming: Please report the recorded % of compound remaining when incubated in rat liver microsomes for CC(C)(C)C[C@H]1N[C@@H](C(=O)NCCCN2CCCC2)[C@H](c2cccc(Cl)c2F)[C@@]12C(=O)Nc1cc(Cl)ccc12 .
Outgoing: 70.6

Incoming: Please report the recorded % of compound remaining when incubated in rat liver microsomes for CN1CCN(CCNC(=O)[C@@H]2N[C@H](CC(C)(C)C)[C@]3(C(=O)Nc4cc(Cl)c(F)cc43)[C@H]2c2cccc(Cl)c2)CC1 .
Outgoing: 54.2

Incoming: Please report the recorded % of compound remaining when incubated in rat liver microsomes for CC(C)(C)C[C@H]1N[C@@H](C(=O)NCCCN2CCCCC2)[C@H](c2cccc(Cl)c2F)[C@@]12C(=O)Nc1cc(Cl)ccc12 .
Outgoing: 66.4

Incoming: Please report the recorded % of compound remaining when incubated in rat liver microsomes for CC(C)(C)C[C@H]1N[C@@H](C(=O)NCCN2CCNCC2)[C@H](c2cccc(Cl)c2)[C@@]12C(=O)Nc1cc(Cl)c(F)cc12 .
Outgoing: 61.5

Incoming: Please report the recorded % of compound remaining when incubated in rat liver microsomes for CC(C)N1CCN(CCCNC(=O)[C@@H]2N[C@H](CC(C)(C)C)[C@]3(C(=O)Nc4cc(Cl)ccc43)[C@H]2c2cccc(Cl)c2F)CC1 .
Outgoing: 50.7

---

tested on: cancer cell lines with wild-type p53 / mutated or deleted p53 (ATCC); experiment: Cell growth assay (WST-8), other cancer cell lines; assay type: cell-based; conditions: Homo sapiens, LNCaP, Table 19C; LNCaP cells; read-out: Cell growth inhibition using WST assay, LNCaP IC50
pIC50: −log10 of the molar value.
value.kind: pIC50

Worked cases, answers included:
Incoming: Please report the recorded pIC50 for CC[C@H]1N[C@@H](C(=O)NCCN2CCOCC2)[C@H](c2cccc(Cl)c2)[C@@]12C(=O)Nc1cc(Cl)c(F)cc12 [MI-319-39] .
Outgoing: < 5.52

Incoming: Please report the recorded pIC50 for CN(C)C[C@@H](O)CCNC(=O)[C@@H]1N[C@H](CC(C)(C)C)[C@]2(C(=O)Nc3cc(Cl)c(F)cc32)[C@H]1c1ccc(F)c(Cl)c1 [MI-319-28] .
Outgoing: > 5.30

Incoming: Please report the recorded pIC50 for CNC[C@@H](O)CCNC(=O)[C@@H]1N[C@H](CC(C)(C)C)[C@]2(C(=O)Nc3cc(Cl)c(F)cc32)[C@H]1c1ccc(F)c(Cl)c1 [MI-319-30] .
Outgoing: < 5.30

Incoming: Please report the recorded pIC50 for CC(C)(C)C[C@H]1N[C@@H](C(=O)NCCN2CCN(C(=O)CO)CC2)[C@H](c2cccc(Cl)c2)[C@@]12C(=O)Nc1cc(Cl)c(F)cc12 [MI-319-33] .
Outgoing: 5.85

Incoming: Please report the recorded pIC50 for CC(C)(C)C[C@H]1N[C@@H](C(=O)NCC[C@H](O)CN)[C@H](c2cccc(Cl)c2)[C@@]12C(=O)Nc1cc(Cl)c(F)cc12 [MI-319-25] .
Outgoing: > 5.30

Let us move to another entry and its pIC50.
Incoming: Please report the recorded pIC50 for CC(C)(C)C[C@H]1N[C@@H](C(=O)NCC[C@H](O)COC(=O)CC(=O)O)[C@H](c2ccc(F)c(Cl)c2)[C@@]12C(=O)Nc1cc(Cl)c(F)cc12 [MI-319-26] .
Outgoing: > 5.30
